- assay-procedure: physchem
- condition-description: pH 5.83, aqueous with cosolvent or surfactant or cyclodextrin, thermodynamic from solid
assay-metric: solubility at 5 days
Remember to quote the unit after the number.

Provide solubility at 5 days value for the following molecule: CC(C)(C)[C@@H](CC(=O)O)Nc1nc(-c2c[nH]c3ncc(F)cc23)ncc1F [Hydrate 1 of Compound (1)]
1170 µg/mL

---

- assay-procedure: physchem
- condition-description: pH 6.18, aqueous with cosolvent or surfactant or cyclodextrin, thermodynamic from solid
assay-metric: solubility at 5 days
Remember to quote the unit after the number.

Provide solubility at 5 days value for the following compound: CC(C)(C)[C@@H](CC(=O)O)Nc1nc(-c2c[nH]c3ncc(F)cc23)ncc1F [Hydrate 1 of Compound (1)]
170 µg/mL

---

- System: A/Mexico/4108/2009
- assay-procedure: 3-day CP assay in MDCK cells
- Assay type: cell-based
- condition-description: Influenza A virus
assay-metric: pEC50
When answering, recall that pEC50 equals minus log10 of the concentration in mol/L, and write that number alone.

>>> val("CC(=O)N[C@H]1[C@H]([C@H](O)[C@H](O)CO)OC(C(=O)O)=C[C@@H]1N=C(N)N")
5.42

Provide pEC50 value for the following molecule: CC(C)(C)[C@@H](CC(=O)O)Nc1nc(-c2c[nH]c3ncc(F)cc23)ncc1F
8.43

---

- assay-procedure: physchem
- condition-description: pH 7.07, saline or isotonic, thermodynamic from solid
assay-metric: solubility at 2 weeks (mg/mL)
The response must be a number in mg/mL with no trailing unit.

Provide solubility at 2 weeks value for the following compound: CC(C)(C)[C@@H](CC(=O)O)Nc1nc(-c2c[nH]c3ncc(F)cc23)ncc1F [Hydrate 1 of Compound (1)]
0.335

---

- System: A/Henan/Jinshui/147/2007
- assay-procedure: 3-day CP assay in MDCK cells
- Type: cell-based
- condition-description: Influenza A virus
pEC50: −log10 of the molar value.
assay-metric: pEC50

Known pEC50 results, listed for orientation:
>>> val("CC(=O)N[C@H]1[C@H]([C@H](O)[C@H](O)CO)OC(C(=O)O)=C[C@@H]1N=C(N)N [Zanamivir]")
"< 5.00"
>>> val("CCC(CC)O[C@@H]1C=C(C(=O)O)C[C@H](N)[C@H]1NC(C)=O [Oseltamivir Carboxylate]")
"< 5.00"

Provide pEC50 value for the following molecule: NC12CC3CC(CC(C3)C1)C2 [Amantadine, amantadine]
< 5.00

---

Listed here are compounds together with their documented pEC50.
- System: A/Virginia/ATCC3/2009
- assay-procedure: 3-day CP assay in MDCK cells
- Assay type: cell-based
- condition-description: Influenza A virus
pEC50: −log10 of the molar value.

Known pEC50 results, listed for orientation:
>>> val("CCC(CC)O[C@@H]1C=C(C(=O)O)C[C@H](N)[C@H]1NC(C)=O [Oseltamivir Carboxylate]")
"< 5.00"
>>> val("NC12CC3CC(CC(C3)C1)C2 [Amantadine, amantadine]")
"< 5.00"

Consider the record given below.
Provide pEC50 value for the following compound: CC(=O)N[C@H]1[C@H]([C@H](O)[C@H](O)CO)OC(C(=O)O)=C[C@@H]1N=C(N)N [Zanamivir]
< 5.00

---

- Tested on: A/Mexico/4108/2009
- assay-procedure: 3-day CP assay in MDCK cells
- Format: cell-based
- condition-description: Influenza A virus
assay-metric: EC50

Known EC50 results, listed for orientation:
>>> val("NC12CC3CC(CC(C3)C1)C2 [Amantadine, amantadine]")
"> 10 µM"
>>> val("CCC(CC)O[C@@H]1C=C(C(=O)O)C[C@H](N)[C@H]1NC(C)=O [Oseltamivir Carboxylate]")
"> 10 µM"

Consider the record given below.
Provide EC50 value for the following compound: NC(=O)c1nc(F)c[nH]c1=O [Compound T-705, favipiravir]
> 10 µM
